List of composite z-score values.
- Experimental target: Calmodulin-1 (Homo sapiens)
- Protocol text: CALM1 binders on microarrays, EGTA buffer, profiling panel, biochemical, small-molecule microarray, Cy5-labelled CALM1 (AID 1111);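 also: labelled calmodulin applied in Tris saline Tween buffer holding calcium plus EGTA and DTT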
- Condition context: Cy5-CALM1 binding fluorescence, higher = more signal
Form rule: numeric answer, no unit written next to it.

Consider the reported composite z-score for these molecules:
CC(=O)NCCCC[C@@H]1NC(=O)[C@@H]2C[C@H](C(=O)O)[C@H](c3cccc(OCCO)c3)N2C1=O    -0.188
CCCCCCC#C[Si](O[C@H](c1ccccc1)c1cn(Cc2ccccc2)nn1)(C(C)C)C(C)C    -0.0092
C[C@@H](OCc1ccccc1)C1NC(=O)[C@@]23C(=O)N[C@@H](Cc4ccccc4)C2[C@H](C)[C@@]2(C)O[C@H]2C3/C=C/C/C=C\CNC(=O)[C@@H]2CCCN2C1=O (some centres not stated)    -1.46
C=CCN1C(=O)[C@@]2(O[C@@H](CCO)[C@H]([Si](C)(C)c3ccc(OC)cc3)[C@H]2C)c2cc(N3C(=O)c4cccc5cccc3c45)ccc21    0.965

Query :: Fill blank: measured composite z-score of the molecule CCN(CC)c1ccc(N2CC=CC34O[C@@H]5C=CCOC(=O)[C@@H]5[C@H]3C(=O)N(C(CO)C(C)C)[C@@H]4C2=O)cc1 (some centres not stated) is ____.
Result :: -0.647

Query :: Look up composite z-score: C=CCNC(=O)[C@H]1[C@@H]2C(=O)O[C@@H](c3ccccc3)[C@@H](c3ccccc3)N2[C@@H](c2ccccc2OCCO)[C@]12C(=O)N(C(=O)OCCOC)c1ccc(C#CCCO)cc12
Result :: 1.78

Query :: Value lookup for composite z-score; key = COC(=O)C1=CC(c2ccc(CO)cc2)=CC(C2CC2)N(C)C=C1C(=O)OC (configuration not stated)
Result :: 1.52
